# assay target: HLA-A*02:01 (Homo sapiens, UniProt P04439, D140Y/D185E/D98H/E176V/E277Q/G131W/G231S/I119V/I121R/I166T/I218V/L300P/L318F/N151K/N90K/P208A/P217A/Q86G/Q94H/R138H/R169H/T345S)
# Construct: purchased Pure Protein, L.L.C
# assay overview: fluorescence polarization-based competitive peptide binding assay
# experimental parameters: fluorescence polarization-based competitive peptide-binding assay; high affinity log(IC50; nM) <3.7; read-out: Experimental Affinity log(IC50) (converted)
No end group written: not given here.
Reported IC50 values for the following sequences.
quantity measured: IC50 (nM)

    sequence_entry  reported_measurement
 0       AMFWSVPTV                   224
 1       IILVAVPHV                  1150
 2       IIGAGPAEV                  6610
 3       KLANPLPYT                  5370
 4       AVIDAYTEI                 25700
 5       LLSIIFFPA                  7940
 6       MLGEQLFPL                   224
 7       QTIDNIVFL                  1550
 8       CLFPQTLAA                  3390
 9       LLSIVPCTV                  1230
10       CLNEYHLFL                  1230

----------
Reported IC50 values for the following sequences.
# assay target: HLA-A*02:01 (Homo sapiens, UniProt P04439, D140Y/D185E/D98H/E176V/E277Q/G131W/G231S/I119V/I121R/I166T/I218V/L300P/L318F/N151K/N90K/P208A/P217A/Q86G/Q94H/R138H/R169H/T345S)
# Construct: purchased Pure Protein, L.L.C
# assay overview: fluorescence polarization-based competitive peptide binding assay
# experimental parameters: fluorescence polarization-based competitive peptide-binding assay; high affinity log(IC50; nM) <3.7; read-out: Experimental Affinity log(IC50) (converted)
No end group written: not given here.
quantity measured: IC50 (nM)

>>> print(df.to_string())
   sequence_entry  quantity_measured  reported_measurement
0       HLYASLSRV               IC50                  1910
1       QLDKCSAFV               IC50                  2290
2       FLYNLLTRV               IC50                   479
3       IMAHCILDL               IC50                 10500
4       YISKCWDYA               IC50                 19100
5       VLLRALPVL               IC50                  1120
6       QLSCISTYV               IC50                  1260
